Recorded measurements of abundance fitness, one per entry
B1: Formin-binding protein 4, residues 593 to 636; numbered along this chain, Q8N3X1 (parent)
chain: EINATPKGWSCHWDRDHRRYFYVNEQSGESQWEFPDGEEEEEES

# Variants of: B1
# Test summary: abundance fitness (aPCA) (normalised: wild type 0, dead -1); higher = more abundant; growth selection in yeast, the domain comes from the species named
# Setup conditions: Homo sapiens
Reply: number alone, nothing else.

EINATPKGWSCHWDRDHRRYFDVNEQSGESQWEFPDGEEEEEES [Y22D]
-0.552
EINATPKGWSCHWDRDHRRYFEVNEQSGESQWEFPDGEEEEEES [Y22E]
-0.482
EINATPKGWSCHWDRDHRRYFYVNEQSGESQWEFPDGEQEEEES [E39Q]
0.074
EINATPKGWSCHWDRDHRRYFYVNEQSGESQWEFPDGEEEEEEG [S44G]
0.083
EINATPKGWSCHWDPDHRRYFYVNEQSGESQWEFPDGEEEEEES [R15P]
-0.118
EINATPKGWSCHWDRDHRRYFYVNEQSGESQWEFPDGHEEEEES [E38H]
-0.2
EINATPKGWSCHWDRDHRRWFYVNEQSGESQWEFPDGEEEEEES [Y20W]
0.072
EINATPKEWSCHWDRDHRRYFYVNEQSGESQWEFPDGEEEEEES [G8E]
-0.438

Entry EINATPKMWSCHWDRDHRRYFYVNEQSGESQWEFPDGEEEEEES [G8M] , abundance fitness reported as -0.605

Entry GINATPKGWSCHWDRDHRRYFYVNEQSGESQWEFPDGEEEEEES [E1G] , abundance fitness reported as -0.433

Entry EINPTPKGWSCHWDRDHRRYFYVNEQSGESQWEFPDGEEEEEES [A4P] , abundance fitness reported as 0.086

Entry EINATPKGWSCHWDRDHRRYFYVNEQNGESQWEFPDGEEEEEES [S27N] , abundance fitness reported as -0.453

Entry EINATPKGWSCHWDRDHRRYFQVNEQSGESQWEFPDGEEEEEES [Y22Q] , abundance fitness reported as -0.439

Entry EINATPKGWSCHWDRDHRRYFYVNEQSGESQWEFPLGEEEEEES [D36L] , abundance fitness reported as -0.176

Entry EINATPKGWSCHWDRDHRMYFYVNEQSGESQWEFPDGEEEEEES [R19M] , abundance fitness reported as -0.21

Entry EILATPKGWSCHWDRDHRRYFYVNEQSGESQWEFPDGEEEEEES [N3L] , abundance fitness reported as -0.239

Entry EINATPKGWSCHWDRDHRRYFYVNEQSGEFQWEFPDGEEEEEES [S30F] , abundance fitness reported as -0.066

Entry EINATPKGWSCHWDRDERRYFYVNEQSGESQWEFPDGEEEEEES [H17E] , abundance fitness reported as 0.088

Entry EINATPGGWSCHWDRDHRRYFYVNEQSGESQWEFPDGEEEEEES [K7G] , abundance fitness reported as -0.577

Entry EINATPKGWSCHWDRDHRRYFYVNEQSGESQWTFPDGEEEEEES [E33T] , abundance fitness reported as -0.078

Entry EINATPKGWSCHWDRDHRRYKYVNEQSGESQWEFPDGEEEEEES [F21K] , abundance fitness reported as -0.067

Entry EINATPKGWSCHWDRDHRRYFYVNEQSGESQWEFPDGEEYEEES [E40Y] , abundance fitness reported as 0.114

Entry EINATPKGWSCHWDRLHRRYFYVNEQSGESQWEFPDGEEEEEES [D16L] , abundance fitness reported as -0.447

Entry EINATPKGWSCPWDRDHRRYFYVNEQSGESQWEFPDGEEEEEES [H12P] , abundance fitness reported as -0.822

Entry EINATPKGWSCHWDRDHRRYFYVNEQSGESRWEFPDGEEEEEES [Q31R] , abundance fitness reported as -0.075

Entry EINATPKAWSCHWDRDHRRYFYVNEQSGESQWEFPDGEEEEEES [G8A] , abundance fitness reported as -0.707
